Data origin: paper PMC3113694

Test system: Jurkat
Assay: Cytotoxicity, sulforhodamine B assay
Type: cell-based
Details: read-out: 72 hour IC50; Jurkat human leukemia; exposure 72 h
Assay readout: pIC50
Answer as the number alone; pIC50 is minus log10 of concentration in mol/L.

Query block: For C=CCc1cccc(/C=N/NC(=O)CN2CCN(Cc3ccccc3)CC2)c1O , what is its reported pIC50?
Result block: 5.24
